Data provenance is the supplement of paper PMC5998384.

- Test system: HeLa Kyoto
- assay-remarks: melting temperature (median over replicates), in situ; higher = more thermally stable
- experimental-setup: cell cycle stage: G1/S
Some sequences, each annotated with its measured melting temperature.

{"biosequence": "MAEVKVKVQPPDADPVEIENRIIELCHQFPHGITDQVIQNEMPHIEAQQRAVAINRLLSMGQLDLLRSNTGLLYRIKDSQNAGKMKGSDNQEKLVYQIIEDAGNKGIWSRDIRYKSNLPLTEINKILKNLESKKLIKAVKSVAASKKKVYMLYNLQPDRSVTGGAWYSDQDFESEFVEVLNQQCFKFLQSKAETARESKQNPMIQRNSSFASSHEVWKYICELGISKVELSMEDIETILNTLIYDGKVEMTIIAAKEGTVGSVDGHMKLYRAVNPIIPPTGLVRAPCGLCPVFDDCHEGGEISPSNCIYMTEWLEF [POLR3F]", "u": "°C", "melting temperature": 52.4}
{"biosequence": "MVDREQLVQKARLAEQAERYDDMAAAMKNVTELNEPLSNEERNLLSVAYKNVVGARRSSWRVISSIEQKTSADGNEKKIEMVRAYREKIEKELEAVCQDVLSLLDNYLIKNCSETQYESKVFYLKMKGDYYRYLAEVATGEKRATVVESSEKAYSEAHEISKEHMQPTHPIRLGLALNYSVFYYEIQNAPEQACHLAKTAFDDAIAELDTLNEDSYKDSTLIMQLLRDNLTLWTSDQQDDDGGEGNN [YWHAG]", "u": "°C", "melting temperature": 55.1}
{"biosequence": "MVCGGFACSKNCLCALNLLYTLVSLLLIGIAAWGIGFGLISSLRVVGVVIAVGIFLFLIALVGLIGAVKHHQVLLFFYMIILLLVFIVQFSVSCACLALNQEQQGQLLEVGWNNTASARNDIQRNLNCCGFRSVNPNDTCLASCVKSDHSCSPCAPIIGEYAGEVLRFVGGIGLFFSFTEILGVWLTYRYRNQKDPRANPSAFL [TSPAN13]", "u": "°C", "melting temperature": 57.7}
{"biosequence": "MAQRMTTQLLLLLVWVAVVGEAQTRIAWARTELLNVCMNAKHHKEKPGPEDKLHEQCRPWRKNACCSTNTSQEAHKDVSYLYRFNWNHCGEMAPACKRHFIQDTCLYECSPNLGPWIQQVDQSWRKERVLNVPLCKEDCEQWWEDCRTSYTCKSNWHKGWNWTSGFNKCAVGAACQPFHFYFPTPTVLCNEIWTHSYKVSNYSRGSGRCIQMWFDPAQGNPNEEVARFYAAAMSGAGPWAAWPFLLSLALMLLWLLS [FOLR1]", "u": "°C", "melting temperature": 58.8}
{"biosequence": "MARGGRGRRLGLALGLLLALVLAPRVLRAKPTVRKERVVRPDSELGERPPEDNQSFQYDHEAFLGKEDSKTFDQLTPDESKERLGKIVDRIDNDGDGFVTTEELKTWIKRVQKRYIFDNVAKVWKDYDRDKDDKISWEEYKQATYGYYLGNPAEFHDSSDHHTFKKMLPRDERRFKAADLNGDLTATREEFTAFLHPEEFEHMKEIVVLETLEDIDKNGDGFVDQDEYIADMFSHEENGPEPDWVLSEREQFNEFRDLNKDGKLDKDEIRHWILPQDYDHAQAEARHLVYESDKNKDEKLTKEEILENWNMFVGSQATNYGEDLTKNHDEL [RCN1]", "u": "°C", "melting temperature": 55}
{"biosequence": "MASADSRRVADGGGAGGTFQPYLDTLRQELQQTDPTLLSVVVAVLAVLLTLVFWKLIRSRRSSQRAVLLVGLCDSGKTLLFVRLLTGLYRDTQTSITDSCAVYRVNNNRGNSLTLIDLPGHESLRLQFLERFKSSARAIVFVVDSAAFQREVKDVAEFLYQVLIDSMGLKNTPSFLIACNKQDIAMAKSAKLIQQQLEKELNTLRVTRSAAPSTLDSSSTAPAQLGKKGKEFEFSQLPLKVEFLECSAKGGRGDVGSADIQDLEKWLAKIA [SRPRB]", "u": "°C", "melting temperature": 50.2}
{"biosequence": "MSRYLLPLSALGTVAGAAVLLKDYVTGGACPSKATIPGKTVIVTGANTGIGKQTALELARRGGNIILACRDMEKCEAAAKDIRGETLNHHVNARHLDLASLKSIREFAAKIIEEEERVDILINNAGVMRCPHWTTEDGFEMQFGVNHLGHFLLTNLLLDKLKASAPSRIINLSSLAHVAGHIDFDDLNWQTRKYNTKAAYCQSKLAIVLFTKELSRRLQGSGVTVNALHPGVARTELGRHTGIHGSTFSSTTLGPIFWLLVKSPELAAQPSTYLAVAEELADVSGKYFDGLKQKAPAPEAEDEEVARRLWAESARLVGLEAPSVREQPLPR [RDH13]", "u": "°C", "melting temperature": 51.1}
{"biosequence": "MGSAGLSRLHGLFAVYKPPGLKWKHLRDTVELQLLKGLNARKPPAPKQRVRFLLGPMEGSEEKELTLTATSVPSFINHPLVCGPAFAHLKVGVGHRLDAQASGVLVLGVGHGCRLLTDMYNAHLTKDYTVRGLLGKATDDFREDGRLVEKTTYDHVTREKLDRILAVIQGSHQKALVMYSNLDLKTQEAYEMAVRGLIRPMNKSPMLITGIRCLYFAPPEFLLEVQCMHETQKELRKLVHEIGLELKTTAVCTQVRRTRDGFFTLDSALLRTQWDLTNIQDAIRAATPQVAAELEKSLSPGLDTKQLPSPGWSWDSQGPSSTLGLERGAGQ [TRUB2]", "u": "°C", "melting temperature": 50.2}
{"biosequence": "MAVKKIAIFGATGQTGLTTLAQAVQAGYEVTVLVRDSSRLPSEGPRPAHVVVGDVLQAADVDKTVAGQDAVIVLLGTRNDLSPTTVMSEGARNIVAAMKAHGVDKVVACTSAFLLWDPTKVPPRLQAVTDDHIRMHKVLRESGLKYVAVMPPHIGDQPLTGAYTVTLDGRGPSRVISKHDLGHFMLRCLTTDEYDGHSTYPSHQYQ [BLVRB]", "u": "°C", "melting temperature": 50.4}
{"biosequence": "MAAAAELSLLEKSLGLSKGNKYSAQGERQIPVLQTNNGPSLTGLTTIAAHLVKQANKEYLLGSTAEEKAIVQQWLEYRVTQVDGHSSKNDIHTLLKDLNSYLEDKVYLTGYNFTLADILLYYGLHRFIVDLTVQEKEKYLNVSRWFCHIQHYPGIRQHLSSVVFIKNRLYTNSH [EEF1E1]", "u": "°C", "melting temperature": 48.6}

* * *

- Test system: HeLa Kyoto
- assay-remarks: melting temperature (median over replicates), in situ; higher = more thermally stable
- experimental-setup: cell cycle stage: mitosis

{"biosequence": "MAGLEVLFASAAPAITCRQDALVCFLHWEVVTHGYFGLGVGDQPGPNDKKSELLPAGWNNNKDLYVLRYEYKDGSRKLLVKAITVESSMILNVLEYGSQQVADLTLNLDDYIDAEHLGDFHRTYKNSEELRSRIVSGIITPIHEQWEKANVSSPHREFPPATAREVDPLRIPPHHPHTSRQPPWCDPLGPFVVGGEDLDPFGPRRGGMIVDPLRSGFPRALIDPSSGLPNRLPPGAVPPGARFDPFGPIGTSPPGPNPDHLPPPGYDDMYL [PSMF1]", "melting temperature / °C": 53}
{"biosequence": "MLSSCVRPVPTTVRFVDSLICNSSRSFMDLKALLSSLNDFASLSFAESWDNVGLLVEPSPPHTVNTLFLTNDLTEEVMEEVLQKKADLILSYHPPIFRPMKRITWNTWKERLVIRALENRVGIYSPHTAYDAAPQGVNNWLAKGLGACTSRPIHPSKAPNYPTEGNHRVEFNVNYTQDLDKVMSAVKGIDGVSVTSFSARTGNEEQTRINLNCTQKALMQVVDFLSRNKQLYQKTEILSLEKPLLLHTGMGRLCTLDESVSLATMIDRIKRHLKLSHIRLALGVGRTLESQVKVVALCAGSGSSVLQGVEADLYLTGEMSHHDTLDAASQGINVILCEHSNTERGFLSDLRDMLDSHLENKINIILSETDRDPLQVV [NIF3L1]", "melting temperature / °C": 60.7}

* * *

- Tested on: HeLa Kyoto;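 also: HeLa Kyoto cells synchronized by double thymidine or nocodazole block, proteins quantified by TMT10plex mass spectrometry, three independent biological replicates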
- assay-remarks: melting temperature (median over replicates), in situ; higher = more thermally stable
- experimental-setup: cell cycle stage: G1/S
reported-metric: melting temperature (°C)

{"biosequence": "MGQREMWRLMSRFNAFKRTNTILHHLRMSKHTDAAEEVLLEKKGCTGVITLNRPKFLNALTLNMIRQIYPQLKKWEQDPETFLIIIKGAGGKAFCAGGDIRVISEAEKAKQKIAPVFFREEYMLNNAVGSCQKPYVALIHGITMGGGVGLSVHGQFRVATEKCLFAMPETAIGLFPDVGGGYFLPRLQGKLGYFLALTGFRLKGRDVYRAGIATHFVDSEKLAMLEEDLLALKSPSKENIASVLENYHTESKIDRDKSFILEEHMDKINSCFSANTVEEIIENLQQDGSSFALEQLKVINKMSPTSLKITLRQLMEGSSKTLQEVLTMEYRLSQACMRGHDFHEGVRAVLIDKDQSPKWKPADLKEVTEEDLNNHFKSLGSSDLKF [HIBCH]", "recorded-result": 49.7}
{"biosequence": "MREYKLVVLGSGGVGKSALTVQFVQGIFVEKYDPTIEDSYRKQVEVDAQQCMLEILDTAGTEQFTAMRDLYMKNGQGFALVYSITAQSTFNDLQDLREQILRVKDTDDVPMILVGNKCDLEDERVVGKEQGQNLARQWNNCAFLESSAKSKINVNEIFYDLVRQINRKTPVPGKARKKSSCQLL [RAP1B]", "recorded-result": 58.5}
{"biosequence": "MVVFGYEAGTKPRDSGVVPVGTEEAPKVFKMAASMHGQPSPSLEDAKLRRPMVIEIIEKNFDYLRKEMTQNIYQMATFGTTAGFSGIFSNFLFRRCFKVKHDALKTYASLATLPFLSTVVTDKLFVIDALYSDNISKENCVFRSSLIGIVCGVFYPSSLAFTKNGRLATKYHTVPLPPKGRVLIHWMTLCQTQMKLMAIPLVFQIMFGILNGLYHYAVFEETLEKTIHEE [TMEM126B]", "recorded-result": 55.9}
{"biosequence": "MAQYKGAASEAGRAMHLMKKREKQREQMEQMKQRIAEENIMKSNIDKKFSAHYDAVEAELKSSTVGLVTLNDMKAKQEALVKEREKQLAKKEQSKELQMKLEKLREKERKKEAKRKISSLSFTLEEEEEGGEEEEEAAMYEEEMEREEITTKKRKLGKNPDVDTSFLPDRDREEEENRLREELRQEWEAKQEKIKSEEIEITFSYWDGSGHRRTVKMRKGNTMQQFLQKALEILRKDFSELRSAGVEQLMYIKEDLIIPHHHSFYDFIVTKARGKSGPLFNFDVHDDVRLLSDATVEKDESHAGKVVLRSWYEKNKHIFPASRWEPYDPEKKWDKYTIR [FAM50A]", "recorded-result": 48.4}
{"biosequence": "MGKGDPNKPRGKMSSYAFFVQTCREEHKKKHPDSSVNFAEFSKKCSERWKTMSAKEKSKFEDMAKSDKARYDREMKNYVPPKGDKKGKKKDPNAPKRPPSAFFLFCSEHRPKIKSEHPGLSIGDTAKKLGEMWSEQSAKDKQPYEQKAAKLKEKYEKDIAAYRAKGKSEAGKKGPGRPTGSKKKNEPEDEEEEEEEEDEDEEEEDEDEE [HMGB2]", "recorded-result": 58.1}
